TARGET_OF_ASSAY: Indoleamine 2,3-dioxygenase 1 (Homo sapiens, UniProt P14902)
Sequence (P14902 whole entry): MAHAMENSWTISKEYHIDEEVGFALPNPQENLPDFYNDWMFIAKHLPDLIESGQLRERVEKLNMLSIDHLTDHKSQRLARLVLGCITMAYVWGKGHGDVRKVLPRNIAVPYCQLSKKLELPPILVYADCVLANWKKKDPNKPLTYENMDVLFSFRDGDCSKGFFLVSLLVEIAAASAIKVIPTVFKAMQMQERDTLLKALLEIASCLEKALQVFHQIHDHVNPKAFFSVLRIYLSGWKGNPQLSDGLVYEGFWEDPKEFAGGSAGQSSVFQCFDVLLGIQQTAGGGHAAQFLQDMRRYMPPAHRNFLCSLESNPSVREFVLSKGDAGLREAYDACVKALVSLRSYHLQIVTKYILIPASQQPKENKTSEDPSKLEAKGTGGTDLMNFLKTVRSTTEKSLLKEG
METHOD_SUMMARY: Inhibition of recombinant human IDO1 assessed as reduction in N-formylkynurenine formation using L-tryptophan as substrate and measured after 15 mins
pIC50: −log10 of the molar value.
Kindly supply the reported pIC50 values for the records listed here.

Some compounds with recorded pIC50:
[[record]]
smiles_text = "Cc1c(Br)oc2c1C(=O)C(=O)c1c-2ccc2c1CCCC2(C)C"
target_of_assay = "Indoleamine 2,3-dioxygenase 1 (Homo sapiens, UniProt P14902)"
observed = "< 5.00"

[[record]]
smiles_text = "CC(=O)Oc1c(OC(C)=O)c2c(C)coc2c2ccc3c(c12)CCCC3(C)C"
target_of_assay = "Indoleamine 2,3-dioxygenase 1 (Homo sapiens, UniProt P14902)"
observed = "< 5.00"


Please look at the following compound next.
pIC50 for `C[C@@H](CO)C1=C(O)C(=O)c2c(ccc3c2CCCC3(C)C)C1=O` is < 5.00
